compounds and their reported IC50
- measuredOn: UniProtKB Q5VWK5
- Sequence (Q5VWK5 whole entry): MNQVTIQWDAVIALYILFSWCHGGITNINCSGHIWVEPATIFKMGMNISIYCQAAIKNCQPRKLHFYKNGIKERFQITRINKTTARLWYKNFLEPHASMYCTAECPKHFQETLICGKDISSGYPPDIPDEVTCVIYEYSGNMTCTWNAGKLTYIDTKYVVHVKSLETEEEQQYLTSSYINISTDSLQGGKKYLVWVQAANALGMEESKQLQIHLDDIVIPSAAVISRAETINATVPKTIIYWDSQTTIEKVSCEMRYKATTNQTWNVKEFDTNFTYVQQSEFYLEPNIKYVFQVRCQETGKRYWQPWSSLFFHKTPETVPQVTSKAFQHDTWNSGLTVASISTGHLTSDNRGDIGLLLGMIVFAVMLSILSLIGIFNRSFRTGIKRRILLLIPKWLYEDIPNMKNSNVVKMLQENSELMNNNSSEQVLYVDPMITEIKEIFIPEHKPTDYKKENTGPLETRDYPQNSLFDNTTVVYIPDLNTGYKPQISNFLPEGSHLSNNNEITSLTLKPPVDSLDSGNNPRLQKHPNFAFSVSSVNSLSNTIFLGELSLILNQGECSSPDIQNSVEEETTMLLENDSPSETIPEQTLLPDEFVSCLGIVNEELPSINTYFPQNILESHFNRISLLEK
- testMethodNotes: Inhibition of interleukin-23 binding to human interleukin-23 receptor incubated for 2 hrs by competitive binding ELISA
Where a SMILES comes first, the peptide text is derived from it. [ ]: non-standard residue; d: D form. hLeu = CC(C)CC[C@H](N)C(=O)O

compound: CC(=O)N[C@@H](CS)C(=O)N[C@@H](C)C(=O)N[C@H](C(=O)N[C@@H](Cc1c[nH]c2ccccc12)C(=O)N[C@H](C(=O)N[C@@H](CS)C(=O)N[C@@H](Cc1ccc(O)cc1)C(=O)N[C@@H](Cc1c[nH]c2ccccc12)C(=O)N[C@@H](Cc1cnc[nH]1)C(=O)N[C@H](C(=O)N[C@@H](Cc1ccccc1)C(=O)NCC(N)=O)[C@@H](C)O)C(C)C)[C@@H](C)O
measuredOn: UniProtKB Q5VWK5
IC50: > 1000 nM

compound: CC(C)[C@H](NC(=O)[C@H](Cc1c[nH]c2ccccc12)NC(=O)[C@@H](NC(=O)[C@H](Cc1cnc[nH]1)NC(=O)[C@@H](N)CS)[C@@H](C)O)C(=O)N[C@@H](CS)C(=O)N[C@@H](Cc1ccc(O)cc1)C(=O)N[C@@H](Cc1c[nH]c2ccccc12)C(=O)N[C@@H](Cc1cnc[nH]1)C(=O)N[C@@H](CCC(=O)O)C(=O)N[C@@H](Cc1ccccc1)C(=O)N[C@@H](CO)C(N)=O (H-CHTWVCYWHEFS-NH2)
measuredOn: UniProtKB Q5VWK5
IC50: > 1000 nM

compound: CC(=O)N[C@@H](CS)C(=O)N[C@@H](CCC(N)=O)C(=O)N1CCC[C@H]1C(=O)N[C@@H](Cc1c[nH]c2ccccc12)C(=O)N[C@@H](CCC(N)=O)C(=O)N[C@@H](CS)C(=O)N[C@@H](Cc1ccc(O)cc1)C(=O)N[C@@H](Cc1c[nH]c2ccccc12)C(=O)N[C@@H](CCC(C)C)C(=O)N[C@@H](CCC(=O)O)C(=O)N[C@@H](CC(N)=O)C(=O)NCC(N)=O (Ac-CQPWQCYW[hLeu]ENG-NH2)
measuredOn: UniProtKB Q5VWK5
IC50: > 10000 nM
